ASSAYED SYSTEM: PAD2 (Homo sapiens)
METHOD SUMMARY: Conversion (R to Cit) of substrate peptides by PAD2, mass spectrometry
Type: biochemical
DETAILS: Table 10
Ends that are not written are not given here.
Overview of reported Conversion by PAD2 (%) across a group of substances:
Number first, unit second.

Answered examples (2):
INSERT INTO results (substance, observed_property, result) VALUES
  ('F-F-D-S-K-K-W-S-R-E-Y-F-F-S-D (FFDSKKWSREYFFSD) [Peptide 0612-32]', 'Conversion by PAD2 (%)', '94%'),
  ('D-S-K-K-H-F-R-G-K-L-Y-S-D (DSKKHFRGKLYSD; not fully specified (C-terminus); printed as D-S-K-K-H-F-R-G-K-L-Y-S-D) [Peptide 0708-32]', 'Conversion by PAD2 (%)', '96%');

Now for another entry.
Given D-S-K-H-F-H-R-D-F-I-Y-S-D (DSKHFHRDFIYSD; not fully specified (C-terminus); printed as D-S-K-H-F-H-R-D-F-I-Y-S-D) [Peptide 0608-23] , state its recorded Conversion by PAD2 (%). 94%

----------
ASSAYED SYSTEM: PAD4 (Homo sapiens, UniProt Q9UM07)
Sequence (Q9UM07 whole entry): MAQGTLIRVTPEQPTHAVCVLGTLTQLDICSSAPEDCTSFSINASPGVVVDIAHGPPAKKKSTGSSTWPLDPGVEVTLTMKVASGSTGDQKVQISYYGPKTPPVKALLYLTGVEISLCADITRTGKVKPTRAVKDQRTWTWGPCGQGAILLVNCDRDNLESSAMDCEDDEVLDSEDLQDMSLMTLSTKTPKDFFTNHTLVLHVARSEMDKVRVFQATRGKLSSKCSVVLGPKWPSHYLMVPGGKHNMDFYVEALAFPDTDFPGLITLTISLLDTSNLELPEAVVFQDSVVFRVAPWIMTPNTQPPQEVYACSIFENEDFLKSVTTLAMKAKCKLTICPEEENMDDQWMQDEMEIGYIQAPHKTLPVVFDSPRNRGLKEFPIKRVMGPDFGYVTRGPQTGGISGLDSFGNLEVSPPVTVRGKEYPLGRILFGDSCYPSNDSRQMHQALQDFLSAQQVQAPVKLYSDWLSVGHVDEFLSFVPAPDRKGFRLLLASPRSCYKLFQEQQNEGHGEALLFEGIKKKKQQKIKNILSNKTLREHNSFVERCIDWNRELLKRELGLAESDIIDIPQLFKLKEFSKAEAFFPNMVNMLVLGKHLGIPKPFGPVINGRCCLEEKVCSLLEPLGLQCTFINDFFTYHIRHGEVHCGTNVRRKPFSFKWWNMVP
METHOD SUMMARY: Citrullination of synthetic peptides by recombinant human PAD4 (MALDI-TOF and ESI-Q-TOF mass spectrometry)
Format: biochemical
Parameters: His6; made in house
DETAILS: share of peptide still unconverted (Arg)
Rule for this label: Satisfied means PAD4 conversion: Arg is less than 80%; Not satisfied means PAD4 conversion: Arg is at least 80%.

Record IEIITDRQSGKKR [SEQ ID NO: 7] : is its PAD4 conversion: Arg strictly below 80%? Satisfied

Hello, I'm reviewing records and need to know if PAD4 conversion: Arg of IEIMTDRGSGKKR [SEQ ID NO: 5] is below 80%. Could you check? Satisfied

Please check: PAD4 conversion: Arg for DSSEELRGGGKSD [SEQ ID NO: 9] , strictly under 80% or not? Not satisfied

Just wondering, is PAD4 conversion: Arg of DGYGGSRDSYSSS [SEQ ID NO: 3] below 80%? Not satisfied

Here's an entry: DSEGTWRKGPEAD [SEQ ID NO: 8] . Is its PAD4 conversion: Arg below 80%? Not satisfied

Determine whether this substance shows PAD4 conversion: Arg lower than 80% (ties excluded): DSRFYWRGGGKSD [SEQ ID NO: 10] Satisfied

Please state whether PAD4 conversion: Arg is below 80% for D-S-Q-F-A-F-R-G-A-S-A-S-D (DSQFAFRGASASD) [Peptide 0308-29, reference compound] Not satisfied

Does this substance meet the criterion PAD4 conversion: Arg < 80%? DSYRSWRDGYYSD [SEQ ID NO: 4] Satisfied

Item IGSRGDRSGFGKF [SEQ ID NO: 6] : PAD4 conversion: Arg beneath 80%, strictly? Satisfied

Determine if GGYSGDRSGGGYG [SEQ ID NO: 2] shows PAD4 conversion: Arg strictly lower than 80%. Satisfied

API: query returns whether the substance falls strictly under 80% in PAD4 conversion: Arg. Query: DDYSSSRDGYGGS [SEQ ID NO: 1] Not satisfied

----------
ASSAYED SYSTEM: PAD2 (Homo sapiens, UniProt Q9Y2J8)
Sequence (Q9Y2J8 whole entry): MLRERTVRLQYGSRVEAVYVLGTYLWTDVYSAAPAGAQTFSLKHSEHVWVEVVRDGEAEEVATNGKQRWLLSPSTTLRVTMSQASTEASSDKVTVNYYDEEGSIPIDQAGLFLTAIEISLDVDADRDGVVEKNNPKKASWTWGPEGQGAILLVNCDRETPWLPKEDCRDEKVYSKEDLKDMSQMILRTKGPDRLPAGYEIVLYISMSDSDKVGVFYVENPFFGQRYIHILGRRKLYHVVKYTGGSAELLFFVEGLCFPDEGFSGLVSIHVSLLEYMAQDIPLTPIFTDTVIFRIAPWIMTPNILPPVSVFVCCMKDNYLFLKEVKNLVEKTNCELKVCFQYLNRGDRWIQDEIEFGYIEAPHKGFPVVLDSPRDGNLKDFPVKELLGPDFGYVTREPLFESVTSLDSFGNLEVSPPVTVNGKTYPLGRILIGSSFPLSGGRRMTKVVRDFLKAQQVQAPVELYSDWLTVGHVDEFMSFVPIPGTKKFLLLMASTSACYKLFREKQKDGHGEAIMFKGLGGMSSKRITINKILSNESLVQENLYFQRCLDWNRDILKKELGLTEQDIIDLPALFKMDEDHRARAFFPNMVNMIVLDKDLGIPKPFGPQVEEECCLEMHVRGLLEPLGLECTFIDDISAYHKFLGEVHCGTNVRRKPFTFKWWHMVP
METHOD SUMMARY: Conversion (R to Cit) of substrate peptides by PAD2, mass spectrometry
Format: biochemical
DETAILS: Table 9, PAD2
Ends that are not written are not given here.
Below, each entry is listed with its recorded Conversion (%).
Write the number in % without appending the unit.

Would you please look over these solved cases?
INSERT INTO results (substance, numeric_readout) VALUES
  ('D-S-Q-F-A-H-R-N-A-S-A-S-D (DSQFAHRNASASD) [Peptide 0735-28]', 35),
  ('D-S-Q-F-A-Y-R-N-A-K-A-S-D (DSQFAYRNAKASD) [Peptide 0735-36]', 74),
  ('D-S-K-F-K-F-R-Y-A-Y-A-S-D (DSKFKFRYAYASD; not fully specified (C-terminus); printed as D-S-K-F-K-F-R-Y-A-Y-A-S-D) [Peptide 0735-34]', 91),
  ('D-S-K-W-Y-H-R-N-K-F-W-S-D (DSKWYHRNKFWSD) [Peptide 0735-27]', 98),
  ('D-S-Q-W-A-F-R-N-A-F-A-S-D (DSQWAFRNAFASD) [Peptide 0735-38]', 82),
  ('D-S-Q-F-A-F-R-H-F-S-A-S-D (DSQFAFRHFSASD) [Peptide 0735-32]', 85);

So what's the measured Conversion (%) for this one? D-S-Q-W-A-F-R-G-A-F-A-S-D (DSQWAFRGAFASD) [Peptide 0735-33] 82

Given the entry D-S-M-C-A-F-R-G-A-K-K-S-D (DSMCAFRGAKKSD) [Peptide 0735-31] , report its measured Conversion (%). 59
